UniProtKB Q99720 measurements of pKi, listed per entry.
Sequence (Q99720 whole entry): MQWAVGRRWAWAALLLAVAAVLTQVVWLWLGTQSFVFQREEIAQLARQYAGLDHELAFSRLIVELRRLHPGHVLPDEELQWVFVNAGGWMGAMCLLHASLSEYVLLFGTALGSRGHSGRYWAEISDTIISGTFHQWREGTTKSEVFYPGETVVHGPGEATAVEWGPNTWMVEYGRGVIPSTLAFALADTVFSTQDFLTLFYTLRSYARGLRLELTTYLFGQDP
pKi: −log10 of the molar value.

As a guide, the following entries are already answered.
{"compound": "Cc1cc(-c2nn(C)c(Cl)c2CN2CCC(CNCCC(C)C)CC2)no1", "study target": "UniProtKB Q99720", "test readout": "pKi", "measured value": "6.30 to 7.00"}
{"compound": "Cc1cc(-c2nn(C)c(Cl)c2C(=O)N2CCCC3(CN(CCC(C)(C)C)C3)C2)no1", "study target": "UniProtKB Q99720", "test readout": "pKi", "measured value": "6.00 to 6.30"}
{"compound": "Cc1cccc(-c2nn(C)c(Cl)c2C(=O)NC2CC3(CCN(CCC(C)(C)C)CC3)C2)n1", "study target": "UniProtKB Q99720", "test readout": "pKi", "measured value": "> 7.00"}
{"compound": "CCc1cc(-c2nn(CC)c(Cl)c2C(=O)NC2CC3(CCN(CCC(C)(C)C)CC3)C2)no1", "study target": "UniProtKB Q99720", "test readout": "pKi", "measured value": "> 7.00"}
{"compound": "CCn1nc(-c2ccnc(C)c2)c(C(=O)N2CCC3(CCN(CCC(C)(C)C)CC3)CC2)c1Cl", "study target": "UniProtKB Q99720", "test readout": "pKi", "measured value": "6.30 to 7.00"}
{"compound": "Cc1cc(-c2nn(C)c(Cl)c2CN2CCC(NCCC(C)C)C2)no1 (stereo not shown)", "study target": "UniProtKB Q99720", "test readout": "pKi", "measured value": "6.00 to 6.30"}

Any idea what pKi was measured for Cc1cc(-c2nn(C)c(Cl)c2CC(=O)N2CCC3(CCN(CCC(C)(C)C)CC3)CC2)no1 ?
6.00 to 6.30

----------
target: human σ2/TMEM97 receptor (Homo sapiens, UniProt Q5BJF2); assay: Binding assay to human σ2/TMEM97 receptor ([3H]-DTG, transfected HEK-293 membranes); conditions: class scale, read-out: Binding σ-2 Ki
Sequence (Q5BJF2 whole entry): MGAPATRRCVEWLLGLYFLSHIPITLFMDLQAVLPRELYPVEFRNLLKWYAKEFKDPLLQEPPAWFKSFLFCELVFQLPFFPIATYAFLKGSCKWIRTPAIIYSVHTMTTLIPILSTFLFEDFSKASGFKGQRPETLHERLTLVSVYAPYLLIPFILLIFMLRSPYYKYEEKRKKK
pKi: −log10 of the molar value.
Form field: pKi (one value per entry).

{"compound": "Cc1cc(-c2nn(C)c(Cl)c2CN2CCCC(NCCC(C)(C)C)CC2)no1 (stereo not shown)", "measured value": "> 7.00"}
{"compound": "Cc1cc(-c2nn(C)c(Cl)c2C(=O)N2CCCC3(CCN(Cc4ccccc4)CC3)C2)no1", "measured value": "> 7.00"}
{"compound": "Cc1cc(-c2nn(C)c(Cl)c2CN2CC3(CCN(CCC(C)(C)C)C3)C2)no1", "measured value": "> 7.00"}
{"compound": "CCn1nc(-c2cnn(C(C)C)c2)c(C(=O)N2CCC3(CCN(CCC(C)(C)C)CC3)CC2)c1Cl", "measured value": "> 7.00"}
{"compound": "CCn1nc(-c2cc(C)on2)c(C(=O)N[C@H]2CCN(CCC(C)(C)C)C2)c1Cl", "measured value": "6.30 to 7.00"}

For Cc1cc(-c2nn(C)c(Cl)c2CN2CCCC[C@H](NCCC(C)C)C2)no1 , what is its reported pKi?
< 6.00

Using the record for CCn1nc(-c2cc(C)on2)c(C(=O)NCC2CCN(CCC(C)(C)C)CC2)c1Cl , report its pKi.
> 7.00
